- test summary: chemical genetic growth profiling, strain panel (AID 1159580);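 also: tested at 20 µM; growth read once vehicle control cultures reached saturation at 30 °C; 1 = growth at the plate median or of vehicle wells; lower values mean less growth of the strain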
- test parameters: S. cerevisiae deletion strains, growth OD, locus YOR231W, strain MKK1, hits give low values
Screen size: about 5,500 compounds; about 2,000 (36%) were called active. Roughly 18% stayed inconclusive and do not appear here. The list shows a part of the results.
assay endpoint: normalized growth
Numbers only.

# map each compound to its normalized growth
1. C=NC(C(=O)NC1C(=O)N2C1SC(C)(C)C2C(=O)O)c1ccccc1 (stereo unspecified)
2. CC1(C)C(=O)[C@@H]2O[C@@H]2[C@@]2(C)C1C[C@@H](O)[C@]1(C)C2CC[C@@]2(C)[C@H](c3ccoc3)OC(=O)C3OC321 (stereo partly specified)
3. CC(=O)O[C@H]1CC[C@@]2(C)C(C[C@@H](OC(C)=O)[C@]3(C)C2CC[C@@]2(C)[C@H](c4ccoc4)OC(=O)[C@H]4O[C@]423)C1(C)C (stereo partly specified)
4. O=C(O)C(O)C(O)C(O)C(O)C(=O)O (stereo unspecified)
5. COC[C@]12CN(C=O)C3[C@@H]4[C@H](OC)C1[C@]3(C1CC3(O)C(OC)C(O)C4(OC(C)=O)C1C3OC(=O)c1ccccc1)[C@@H](OC)C[C@H]2O (stereo partly specified)
6. CC(C)(S)[C@@H](N)C(=O)O

Result:
1
0.983
1.02
1.01
1.01
1.01
